Where do the numbers come from? From ChEMBL document CHEMBL5236624.

biological target: Muscarinic acetylcholine receptor M5 (Homo sapiens, UniProt P08912)
Sequence (P08912 whole entry): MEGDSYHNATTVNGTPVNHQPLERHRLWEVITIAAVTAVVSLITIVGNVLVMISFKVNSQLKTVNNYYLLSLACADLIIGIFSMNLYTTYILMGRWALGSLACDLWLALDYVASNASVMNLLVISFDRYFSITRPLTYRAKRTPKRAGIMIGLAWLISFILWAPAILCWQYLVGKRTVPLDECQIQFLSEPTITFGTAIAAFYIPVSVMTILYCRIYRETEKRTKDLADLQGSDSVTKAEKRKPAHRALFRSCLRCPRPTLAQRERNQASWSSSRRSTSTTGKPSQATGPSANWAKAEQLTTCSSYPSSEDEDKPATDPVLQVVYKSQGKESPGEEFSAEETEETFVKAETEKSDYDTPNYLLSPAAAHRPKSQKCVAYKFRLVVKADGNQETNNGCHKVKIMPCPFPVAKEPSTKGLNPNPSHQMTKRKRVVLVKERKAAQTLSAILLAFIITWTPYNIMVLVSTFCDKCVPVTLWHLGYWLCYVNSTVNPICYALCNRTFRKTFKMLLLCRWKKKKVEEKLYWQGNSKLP
Readout Kind: pKi
Answers are plain numbers, as −log10 of the molar value.

Smiles Repr	Measured
CN(C)c1ccc2c(-c3ccc(-c4cn(CCCCCn5cc(CCCCCCN6CCC(COC(=O)Nc7ccc(F)cc7-c7ccc(F)c(Cl)c7)CC6)nn5)nn4)cc3C(=O)[O-])c3ccc(=[N+](C)C)cc-3oc2c1	8.13
CN(C)c1ccc2c(-c3ccc(-c4cn(CCCCCn5cc(CCCCCN6CCC(COC(=O)Nc7ccc(F)cc7-c7ccc(F)c(Cl)c7)CC6)nn5)nn4)cc3C(=O)[O-])c3ccc(=[N+](C)C)cc-3oc2c1	7.92
CN(C)c1ccc2c(-c3ccc(-c4cn(CCCCCn5cc(CCCCCCN6CCC(OC(=O)Nc7ccc(F)cc7-c7ccc(F)c(Cl)c7)CC6)nn5)nn4)cc3C(=O)[O-])c3ccc(=[N+](C)C)cc-3oc2c1	7.96
CN1/C(=C/C=C/C=C/C2=[N+](CCCCCC(=O)NCCCNCCCCCCN3CCC(COC(=O)Nc4ccc(F)cc4-c4ccc(F)c(Cl)c4)CC3)c3ccccc3C2(C)C)C(C)(C)c2ccccc21	7.74

Shifting focus to the compound that follows.
Fill in the blank: the reported pKi of `CN1/C(=C/C=C/C=C/C2=[N+](CCCCCC(=O)NCCCCCCN3CCC(OC(=O)Nc4ccc(F)cc4-c4ccc(F)c(Cl)c4)CC3)c3ccccc3C2(C)C)C(C)(C)c2ccccc21` is ____. 7.40
